We begin with a simple list: items and their reported pIC50.
target-entity: UniProtKB P16116
pIC50: −log10 of the molar value.

| compound | target-entity | pIC50 |
| --- | --- | --- |
| CC(COc1ccc(CC2SC(=O)NC2=O)cc1)N1CC(COCCc2ccccc2)OC1=O (stereo not shown) | UniProtKB P16116 | 5.48 |
| CC(COc1ccc(CC2SC(=O)NC2=O)cc1)N1CC(COc2ccccc2)OC1=S (stereo not shown) | UniProtKB P16116 | 5.98 |
| CC(CSc1ccc(CC2SC(=O)NC2=O)cc1)N1CC(COc2cccc(Cl)c2)OC1=O (stereo not shown) [10 (polar)] | UniProtKB P16116 | 6.10 |
| CCC(COc1ccc(CC2SC(=O)NC2=O)cc1)N1CC(COc2cccc(Cl)c2)OC1=O (stereo not shown) [47 (polar)] | UniProtKB P16116 | 6.34 |

* * *

target-entity: Bovine lens aldose reductase (Bos taurus, UniProt P16116)
Construct: Bovine lens aldose reductase was separated and partially purified; from tissue; host or cells: bovine lens
experiment: Inhibition of Aldose reductase
Format: biochemical
study-conditions: read-out: Inhibition at 5 μg/ml
Overview of recorded inhibition at 5 µg/mL for various compounds

| compound | inhibition at 5 µg/mL / % |
| --- | --- |
| CC(COc1ccc(CC2SC(=O)NC2=O)cc1)NCC(O)COc1cccc(Cl)c1 (stereo not shown) | 63.2 |
| CCC(COc1ccc(CC2SC(=O)NC2=O)cc1)N1CC(COc2cccc(Cl)c2)OC1=O (single isomer, unassigned) [47 (less polar)] | 57.6 |
| CC(COc1ccc(CC2SC(=O)NC2=O)cc1)NCC(O)COCCCCCCc1ccccc1 (stereo not shown) | 69.1 |
| CC(C)(COc1ccc(CC2SC(=O)NC2=O)cc1)N1CC(COc2cccc(Cl)c2)OC1=O (stereo not shown) | 72.8 |

* * *

target-entity: Bovine lens aldose reductase (Bos taurus, UniProt P16116)
Construct: Bovine lens aldose reductase was separated and partially purified; from tissue; host or cells: bovine lens
experiment: Inhibition of Aldose reductase
Format: biochemical
study-conditions: read-out: Inhibition at 5 μg/ml

| compound | inhibition at 5 µg/mL [%] |
| --- | --- |
| CC(COc1ccc(CC2SC(=O)NC2=O)cc1)N1CC(CSc2ccccc2)OC1=O (stereo not drawn) [Example 38] | 80.1 |
| CC(COc1ccc(CC2SC(=O)NC2=O)cc1)NCC(O)COc1cccc(N(C)C)c1 (stereo not drawn) [Example 32] | 54.6 |
| CC(COc1ccc(CC2SC(=O)NC2=O)cc1)N1CC(COCCCCc2ccccc2)OC1=O (single isomer, unassigned) [25 (less polar)] | 57.1 |
| CC(COc1ccc(CC2SC(=O)NC2=O)cc1)NCC(O)CSc1ccccc1 (stereo not drawn) [Example 37] | 55.2 |
| CC(COc1ccc(CC2SC(=O)NC2=O)cc1)N1CC(COc2ccccc2)OC1=O (stereo not drawn) [Example 4] | 84.5 |
| COc1ccc(OCC2CN(C(C)COc3ccc(CC4SC(=O)NC4=O)cc3)C(=O)O2)cc1 (stereo not drawn) [31 (polar)] | 88.1 |
| CC(COc1ccc(CC2SC(=O)NC2=O)cc1)N1CC(COCc2cccc(Cl)c2)OC1=O (stereo not drawn) [Example 42] | 74 |
| CC(COc1ccc(CC2SC(=O)NC2=O)cc1)N1CC(COc2ccccc2)OC1=S (stereo not drawn) [Example 49] | 77.8 |
| CC(COc1ccc(CC2SC(=O)NC2=O)cc1)N1CCOC(COc2cccc(Cl)c2)C1 (stereo not drawn) [Example 55] | 62.7 |
| CCC(COc1ccc(CC2SC(=O)NC2=O)cc1)N1CC(COc2cccc(Cl)c2)OC1=O (stereo not drawn) [47 (polar)] | 86.6 |
| CC(COc1ccc(CC2SC(=O)NC2=O)cc1)NCC(O)COCCCCc1ccccc1 (stereo not drawn) [Example 19] | 56.1 |
| CC(COc1ccc(CC2SC(=O)NC2=O)cc1)N1CC(COc2cccc(F)c2)OC1=O (stereo not drawn) [Example 30] | 68.6 |
| CC(COc1ccc(CC2SC(=O)NC2=O)cc1)N1CC(COCCCCc2ccccc2)OC1=O (stereo not drawn) [25 (polar)] | 82 |
| CC(CSc1ccc(CC2SC(=O)NC2=O)cc1)N1CC(COc2cccc(Cl)c2)OC1=O (single isomer, unassigned) [10 (less polar)] | 60.1 |
| O=C1NC(=O)C(Cc2ccc(OCCCCN3CC(COc4cccc(Cl)c4)OC3=O)cc2)S1 (stereo not drawn) [Example 54] | 69.1 |
| CC(COc1ccc(CC2SC(=O)NC2=O)cc1)N1CC(COCCCc2ccccc2)OC1=O (single isomer, unassigned) [24 (less polar)] | 71.7 |
| COc1ccc(OCC2CN(C(C)COc3ccc(CC4SC(=O)NC4=O)cc3)C(=O)O2)cc1 (single isomer, unassigned) [31 (less polar)] | 67.8 |
| CC(COc1ccc(CC2SC(=O)NC2=O)cc1)N1CC(COCCCCCCc2ccccc2)OC1=O (stereo not drawn) [Example 27] | 54.9 |
| CCC(COc1ccc(CC2SC(=O)NC2=O)cc1)NCC(O)COc1cccc(Cl)c1 (stereo not drawn) [Example 46] | 61 |
| CC(COc1ccc(CC2SC(=O)NC2=O)cc1)N1CC(COCc2ccccc2)OC1=O (stereo not drawn) [Example 22] | 70.1 |
| CC(COc1ccc(CC2SC(=O)NC2=O)cc1)NCC(O)COCCCCCc1ccccc1 (stereo not drawn) [Example 16] | 59.2 |
| CC(COc1ccc(CC2SC(=O)NC2=O)cc1)N1CC(COCc2cccc(Cl)c2)OC1=S (stereo not drawn) [Example 43] | 65.9 |
| CC(COc1ccc(CC2SC(=O)NC2=O)cc1)NCC(O)COCCCCCCCCc1ccccc1 (stereo not drawn) [Example 21] | 58.7 |
| CC(COc1ccc(CC2SC(=O)NC2=O)cc1)N1CC(COc2cccc(N(C)C)c2)OC1=O (stereo not drawn) [Example 33] | 85.5 |
| CC(COc1ccc(CC2SC(=O)NC2=O)cc1)NCC(O)COCc1cccc(Cl)c1 (stereo not drawn) [Example 41] | 57.4 |
| CC(COc1ccc(CC2SC(=O)NC2=O)cc1)N1CC(COCCc2ccccc2)OC1=O (stereo not drawn) [Example 23] | 70.7 |
| O=C1NC(=O)C(Cc2ccc(OCCCN3CC(COc4ccccc4)OC3=O)cc2)S1 (stereo not drawn) [Example 53] | 77.6 |
| CC(COc1ccc(CC2SC(=O)NC2=O)cc1)N1CC(CN(C)c2ccccc2)OC1=O (stereo not drawn) [Example 40] | 80.9 |
| CC(COc1ccc(CC2SC(=O)NC2=O)cc1)N1CC(COc2cccc(Cl)c2)OC1=O (stereo not drawn) [Example 1] | 89.6 |
| CC(COc1ccc(CC2SC(=O)NC2=O)cc1)N1CC(Cc2ccccc2)OC1=O (stereo not drawn) [Example 8] | 67.2 |
| CC(COc1ccc(CC2SC(=O)NC2=O)cc1)NCC(O)COc1ccc(-c2ccccc2)cc1 (stereo not drawn) [Example 34] | 62 |
| CC(COc1ccc(CC2SC(=O)NC2=O)cc1)N1CC(COCCCCCc2ccccc2)OC1=O (stereo not drawn) [Example 26] | 74.2 |
| CC(CSc1ccc(CC2SC(=O)NC2=O)cc1)N1CC(COc2cccc(Cl)c2)OC1=O (stereo not drawn) [10 (polar)] | 88.3 |

* * *

target-entity: Bovine lens aldose reductase (Bos taurus, UniProt P16116)
Define the label as 1.0 when IC50 is strictly less than 2000 nM and as 0.0 in all remaining cases.

| compound | class-name |
| --- | --- |
| CC(COc1ccc(CC2SC(=O)NC2=O)cc1)NCC(O)COc1cccc(Cl)c1 (centres unmarked) | 0.0 |
| CC(COc1ccc(CC2SC(=O)NC2=O)cc1)NCC(O)COc1cccc(N(C)C)c1 (centres unmarked) | 0.0 |
| CCC(COc1ccc(CC2SC(=O)NC2=O)cc1)N1CC(COc2cccc(Cl)c2)OC1=O (single isomer, unassigned) [47 (less polar)] | 0.0 |
| COc1ccc(OCC2CN(C(C)COc3ccc(CC4SC(=O)NC4=O)cc3)C(=O)O2)cc1 (centres unmarked) [31 (polar)] | 1.0 |
| O=C1NC(=O)C(Cc2ccc(OCCCN3CC(COc4ccccc4)OC3=O)cc2)S1 (centres unmarked) | 0.0 |
| CC(COc1ccc(CC2SC(=O)NC2=O)cc1)N1CC(COc2ccccc2)OC1=O (centres unmarked) | 0.0 |
| CC(COc1ccc(CC2SC(=O)NC2=O)cc1)N1CC(COCCCCCc2ccccc2)OC1=O (centres unmarked) | 1.0 |
| CC(COc1ccc(CC2SC(=O)NC2=O)cc1)N1CC(Cc2ccccc2)OC1=O (centres unmarked) | 0.0 |

* * *

What follows is a collection of pIC50 values obtained with UniProt:P16116.
pIC50: −log10 of the molar value.
measured-attribute: pIC50

| compound | target-entity | numeric-value |
| --- | --- | --- |
| COc1ccc(OCC2CN(C(C)COc3ccc(CC4SC(=O)NC4=O)cc3)C(=O)O2)cc1 (single isomer, unassigned) [31 (less polar)] | UniProt:P16116 | 5.41 |
| CC(COc1ccc(CC2SC(=O)NC2=O)cc1)N1CC(COCCCCc2ccccc2)OC1=O (single isomer, unassigned) [25 (less polar)] | UniProt:P16116 | 5.41 |
| CCC(COc1ccc(CC2SC(=O)NC2=O)cc1)NCC(O)COc1cccc(Cl)c1 (centres unmarked) | UniProt:P16116 | 5.22 |
| CC(COc1ccc(CC2SC(=O)NC2=O)cc1)N1CC(COCCCc2ccccc2)OC1=O (single isomer, unassigned) [24 (less polar)] | UniProt:P16116 | 5.71 |
| CC(COc1ccc(CC2SC(=O)NC2=O)cc1)N1CC(COCc2cccc(Cl)c2)OC1=O (centres unmarked) | UniProt:P16116 | 5.73 |
| CC(CSc1ccc(CC2SC(=O)NC2=O)cc1)N1CC(COc2cccc(Cl)c2)OC1=O (single isomer, unassigned) [10 (less polar)] | UniProt:P16116 | 5.40 |
| CC(COc1ccc(CC2SC(=O)NC2=O)cc1)NCC(O)COCCCCCCc1ccccc1 (centres unmarked) | UniProt:P16116 | 5.46 |
| CC(COc1ccc(CC2SC(=O)NC2=O)cc1)N1CC(COCCCCc2ccccc2)OC1=O (centres unmarked) [25 (polar)] | UniProt:P16116 | 6.37 |
